system: Mus musculus; assay: Volume of distribution at steady state in CD1 mouse plasma at 10 mg/kg, iv by LC-MS/MS analysis; format: ADME, organism-based; conditions: in vivo
Readout label: Vdss (L/kg)

# Smiles string, Uom, Test value
records = [
    ("Cn1c(CNC2(C)CCC2)cc2cc3c(cc21)OCCc1c-3[nH]c(=O)c(C(=O)O)c1O", "L/kg", 13),
    ("CN(C)Cc1cc2cc3c(cc2n1C)OCCc1c-3[nH]c(=O)c(C(=O)O)c1O", "L/kg", 7.6),
    ("Cn1c(CNC2(C)CCC2)cc2cc3c(cc21)CCCc1c-3[nH]c(=O)c(C(=O)O)c1O", "L/kg", 7.1),
    ("Cn1c(CN2CCCC2)cc2cc3c(cc21)CCCc1c-3[nH]c(=O)c(C(=O)O)c1O", "L/kg", 8.1),
    ("CC(C)NCc1cc2cc3c(cc2n1C)CCCc1c-3[nH]c(=O)c(C(=O)O)c1O", "L/kg", 69),
    ("CN(C)Cc1cc2cc3c(cc2n1C)CCCc1c-3[nH]c(=O)c(C(=O)O)c1O", "L/kg", 11),
]
